Items are presented alongside their recorded pIC50.
# assaySystem: mouse SPNS2 (Mus musculus (Mouse), UniProt Q91VM4)
# Sequence (Q91VM4 whole entry): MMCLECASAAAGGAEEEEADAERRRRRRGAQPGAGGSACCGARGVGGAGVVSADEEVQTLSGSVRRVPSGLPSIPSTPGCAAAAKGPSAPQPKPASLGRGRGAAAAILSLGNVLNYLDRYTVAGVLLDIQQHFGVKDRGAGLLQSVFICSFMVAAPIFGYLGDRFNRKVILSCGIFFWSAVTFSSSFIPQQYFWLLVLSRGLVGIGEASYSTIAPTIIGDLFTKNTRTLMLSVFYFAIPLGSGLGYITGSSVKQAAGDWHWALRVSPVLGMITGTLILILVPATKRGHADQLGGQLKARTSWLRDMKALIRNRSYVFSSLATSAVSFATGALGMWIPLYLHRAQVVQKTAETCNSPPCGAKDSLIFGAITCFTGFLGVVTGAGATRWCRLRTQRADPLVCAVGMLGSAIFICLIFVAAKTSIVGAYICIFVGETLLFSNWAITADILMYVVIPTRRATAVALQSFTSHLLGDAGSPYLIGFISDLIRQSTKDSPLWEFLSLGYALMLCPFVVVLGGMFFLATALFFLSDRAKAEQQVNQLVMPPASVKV
# protocol: S1P Transporter Assay (S1P release from whole cells expressing SPNS2)
# Assay type: cell-based
# testConditions: in vitro inhibition against SPNS2; HeLa cells expressing mouse SPNS2, S1P release into media after 18 hours; compounds as their pharmaceutical salts
pIC50: −log10 of the molar value. Where a name gives a salt, the structure may show the parent alone.

CCCCCCCCCCc1ccc2nc(CCN)oc2c1 [Compound 8d, Hydrochloride] : < 5.70

Continue with the next compound.
input: Recorded pIC50 for CCCCCCCCCCc1ccc2nc(NC3CCNCC3)oc2c1 [Compound 13ab, Hydrochloride] , please?
output: ≥ 5.70

----------
# assaySystem: mouse SPNS2 (Mus musculus (Mouse))
# protocol: S1P Transporter Assay (S1P release from whole cells expressing SPNS2)
# testConditions: in vitro inhibition against SPNS2; HeLa cells expressing mouse SPNS2, S1P release into media after 18 hours; compounds as their pharmaceutical salts
Where a name gives a salt, the structure may show the parent alone.
Items are presented alongside their recorded IC50.

CCCCCCCCCCc1ccc2oc(NCCCCN)nc2c1 [Compound 13g, hydrochloride] : > 2000 nM

input: Recorded IC50 for CCCCCCCCCCc1ccc(NC(=O)O[C@H]2CCNC2)cc1 [Compound 23b, Hydrochloride] , please?
output: > 2000 nM

input: And what about the compound CCCCCCCCCCc1ccc(NC(=O)[C@@H]2CCCN(C(=N)N)C2)cc1 [Compound 4a, 2,2,2-trifluoroacetate] ?
output: ≤ 2000 nM

input: And what about the compound CCCCCCCCCCc1ccc(NC(=O)CCCNC(=N)N)cc1 [Compound 4c, Hydrochloride] ?
output: ≤ 2000 nM

input: And what about the compound CCCCCCCCCCc1ccc(NC(=O)NCCCN)cc1 [Compound 20b, Hydrochloride] ?
output: ≤ 2000 nM

----------
# assaySystem: mouse SPNS2 (Mus musculus (Mouse), UniProt Q91VM4)
# protocol: S1P Transporter Assay (S1P release from whole cells expressing SPNS2)
# testConditions: in vitro inhibition against SPNS2; HeLa cells expressing mouse SPNS2, S1P release into media after 18 hours; compounds as their pharmaceutical salts
Structures can show the parent of a compound that is named as a salt.
property: IC50

CCCCCCCCCCc1ccc2oc(NC3CNC3)nc2c1 [Compound 13i, 2,2,2-trifluoroacetate] : > 2 µM
CCCCCCCCCCc1ccc(NC(=O)N[C@H]2CCNC2)cc1 [Compound 34, Hydrochloride] : ≤ 2 µM
CCCCCCCCCCc1ccc2oc(CCN)nc2c1 [Compound 8a, Hydrochloride] : > 2 µM

input: Recorded IC50 for CCCCCCCCCCc1ccc2nc(N3CC[C@H](N)C3)oc2c1 [Compound 13z, Hydrochloride] , please?
output: > 2 µM

input: And what about the molecule CCCCCCCCCCCCc1ccc2oc(NCCN)nc2c1 [Compound 13e, hydrochloride] ?
output: > 2 µM

input: And what about the molecule CCCCCCCCCCc1ccc(NC(=O)N2CCNCC2)cc1 [Compound 35, Hydrochloride] ?
output: ≤ 2 µM

input: And what about the molecule CCCCCCCCCCc1ccc(NC(=O)CCCCCN)cc1 [Compound 2f, Hydrochloride] ?
output: ≤ 2 µM

input: And what about the molecule CCCCCCCCCCc1ccc(NC(=O)CCCN)cc1 [Compound 2c, Hydrochloride] ?
output: ≤ 2 µM

----------
# assaySystem: mouse SPNS2 (Mus musculus (Mouse))
# protocol: S1P Transporter Assay (S1P release from whole cells expressing SPNS2)
# testConditions: in vitro inhibition against SPNS2; HeLa cells expressing mouse SPNS2, S1P release into media after 18 hours; compounds as their pharmaceutical salts
pIC50: −log10 of the molar value. Where a name gives a salt, the structure may show the parent alone.
property: pIC50

CCCCCCCCCCc1cccc2nc(NCCCN)oc12 [Compound 13v, hydrochloride] : < 5.70
CCCCCCCCCCc1ccc2nc(NCCN)oc2c1 [Compound 13q, hydrochloride] : < 5.70
CCCCCCCCCCc1ccc2nc(NCCN)sc2c1 [Compound 17a, hydrochloride] : < 5.70
CCCCCCCCc1ccc(NC(=O)CCCN)cc1 [Compound 2h, Hydrochloride] : < 5.70

input: Recorded pIC50 for CCCCCCCCCc1ccc(NC(=O)CCCN)cc1 [Compound 2g, Hydrochloride] , please?
output: < 5.70

input: And what about the molecule CCCCCCCCCCc1ccc(C(=O)NCCN)cc1 [Compound 26e, Hydrochloride] ?
output: < 5.70

input: And what about the molecule CCCCCCCCCCc1ccc(NC(=O)CCN)cc1 [Compound 2d, Hydrochloride] ?
output: ≥ 5.70

input: And what about the molecule CCCCCCCCCCc1ccc(NC(=O)[C@@H]2CCNC2)cc1 [Compound 2b] ?
output: < 5.70

input: And what about the molecule CCCCCCCCCCc1ccc2oc(N[C@@H]3CNC[C@@H]3F)nc2c1 [Compound 13l, hydrochloride] ?
output: ≥ 5.70

----------
# assaySystem: mouse SPNS2 (Mus musculus (Mouse), UniProt Q91VM4)
# protocol: S1P Transporter Assay (S1P release from whole cells expressing SPNS2)
# testConditions: in vitro inhibition against SPNS2; HeLa cells expressing mouse SPNS2, S1P release into media after 18 hours; compounds as their pharmaceutical salts
pIC50: −log10 of the molar value. Counter-ions that a name gives are not always drawn.
Items are presented alongside their recorded pIC50.

Look over these answered cases.
CCCCCCCCCCc1cccc2oc(NCCN)nc12 [Compound 13w, hydrochloride] : < 5.70
CCCCCCCCCCc1ccc(NC(=O)CCCN)c(F)c1 [Compound 2l, Hydrochloride] : < 5.70

input: Recorded pIC50 for CCCCCCCCCCc1ccc2oc(NCCCCCN)nc2c1 [Compound 13h, hydrochloride] , please?
output: < 5.70

input: And what about the molecule CCCCCCCCCCc1ccc(NC(=O)C[C@H]2CCNC2)cc1 [Compound 2j, Hydrochloride] ?
output: ≥ 5.70

----------
Items are presented alongside their recorded IC50.
# assaySystem: UniProtKB Q91VM4
# protocol: S1P Transporter Assay (S1P release from whole cells expressing SPNS2)
# testConditions: in vitro inhibition against SPNS2; HeLa cells expressing mouse SPNS2, S1P release into media after 18 hours; compounds as their pharmaceutical salts
Where a name gives a salt, the structure may show the parent alone.

Look over these answered cases.
CCCCCCCCCCc1ccc(NC(=O)N2CCC(N)CC2)cc1 [Compound 20a, Hydrochloride] : ≤ 2000 nM
CCCCCCCCCCc1ccc2oc(CCCCCN)nc2c1 : > 2000 nM
CCCCCCCCCCc1ccc2oc(NCCCN)nc2c1 [Compound 13f, hydrochloride] : > 2000 nM
CCCCCCCCc1ccc2oc(NCCN)nc2c1 [Compound 13a, hydrochloride] : > 2000 nM
CCCCCCCCCCc1ccc2nc(NCCCN)oc2c1 [Compound 13r, hydrochloride] : > 2000 nM
CCCCCCCCCCc1ccc2oc(CCCN)nc2c1 [Compound 8b, Hydrochloride] : > 2000 nM
CCCCCCCCCCc1ccc2oc(NCC3CCNCC3)nc2c1 : > 2000 nM
CCCCCCCCCCc1cccc2oc(NCCCN)nc12 [Compound 13x, hydrochloride] : > 2000 nM
CCCCCCCCCOc1ccc(NC(=O)CCCN)cc1C(F)(F)F [Compound 2m, hydrochloride] : > 2000 nM
CCCCCCCCCCc1ccc(NC(=O)OCCN)cc1 [Compound 23a, Hydrochloride] : > 2000 nM

input: Recorded IC50 for CCCCCCCCCCc1ccc2oc(N3CCNCC3)nc2c1 [Compound 13p, Hydrochloride] , please?
output: > 2000 nM

input: And what about the molecule CCCCCCCCCCc1ccc2nc(N3CC[C@@H](N)C3)oc2c1 [Compound 13aa, Hydrochloride] ?
output: > 2000 nM

input: And what about the molecule CCCCCCCCCc1ccc2oc(NCCN)nc2c1 [Compound 13b, hydrochloride] ?
output: > 2000 nM

----------
# assaySystem: mouse SPNS2 (Mus musculus (Mouse), UniProt Q91VM4)
# protocol: S1P Transporter Assay (S1P release from whole cells expressing SPNS2)
# testConditions: in vitro inhibition against SPNS2; HeLa cells expressing mouse SPNS2, S1P release into media after 18 hours; compounds as their pharmaceutical salts
pIC50: −log10 of the molar value. Where a name gives a salt, the structure may show the parent alone.
property: pIC50

Look over these answered cases.
CCCCCCCCCCc1ccc2nc(N(CCN)CCN)oc2c1 [Compound 13y, dihydrochloride] : ≥ 5.70
CCCCCCCCCCc1ccc(NC(=O)CCCN(C)C)cc1 [Compound 2p, Hydrochloride] : < 5.70
CCCCCCCCCCc1ccc(NC(=O)C2CCNCC2)cc1 [Compound 2o, Hydrochloride] : < 5.70
CCCCCCCCCCc1ccc(C(=O)NC2CCNCC2)cc1 [Compound 39, Hydrochloride] : ≥ 5.70
CCCCCCCCCCc1ccc2oc(NC3CCNCC3)nc2c1 [Compound 13m, Hydrochloride] : ≥ 5.70

Continue with the next compound.
input: Recorded pIC50 for CCCCCCCCCCc1ccc2nc(NCCCN)sc2c1 [Compound 17b, hydrochloride] , please?
output: < 5.70

Origin of values: patent US20230331683A1
